assayedTarget: RIPK2 (Homo sapiens)
Sequence (O43353 whole entry): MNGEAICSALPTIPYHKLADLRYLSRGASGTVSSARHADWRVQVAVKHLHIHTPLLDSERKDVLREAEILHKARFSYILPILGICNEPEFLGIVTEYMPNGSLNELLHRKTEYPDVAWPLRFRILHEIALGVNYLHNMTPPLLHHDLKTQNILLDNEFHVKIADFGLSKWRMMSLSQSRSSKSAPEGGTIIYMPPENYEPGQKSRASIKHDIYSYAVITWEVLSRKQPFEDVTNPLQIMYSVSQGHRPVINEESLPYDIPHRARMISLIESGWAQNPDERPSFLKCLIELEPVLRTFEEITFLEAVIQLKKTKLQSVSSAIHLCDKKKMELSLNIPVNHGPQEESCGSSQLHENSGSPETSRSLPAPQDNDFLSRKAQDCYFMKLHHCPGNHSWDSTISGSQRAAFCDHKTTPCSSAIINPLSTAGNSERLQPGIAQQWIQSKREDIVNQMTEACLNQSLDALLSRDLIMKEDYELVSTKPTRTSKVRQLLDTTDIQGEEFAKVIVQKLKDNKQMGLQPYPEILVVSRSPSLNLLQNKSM
protocolNotes: Kinase profiling (radiometric filter-binding)
Format: biochemical
assayContext: RIPK2, 1 µM inhibitor; read-out: Residual activity, %
Square brackets hold non-standard residues; d marks the D form. Peptide text beside a SMILES is read from it. * marks the point of attachment. X3 = O=C(CCCCCNCc1nc2c(sc3cc(Br)cnc32)c(=O)[nH]1)*
measurementLabel: remaining activity at 1 µM
Answer with the figure and its unit, nothing else.

Example entries and their recorded answers appear below.
>  <compound>
N=C(N)NCCC[C@@H](NC(=O)CNC(=O)[C@@H](CCCNC(=N)N)NC(=O)[C@@H](CCCNC(=N)N)NC(=O)CCCCCCCNCc1nc2c(sc3cc(Br)cnc32)c(=O)[nH]1)C(=O)N[C@H](CCCCN)C(N)=O [Compound 1, BPTP-Aoc-(D-Arg)2-Gly-D-Arg-D-Lys-NH2]

>  <remaining activity at 1 µM>
62%

$$$$
>  <compound>
N=C(N)NCCC[C@@H](NC(=O)CNC(=O)[C@@H](CCCNC(=N)N)NC(=O)[C@@H](CCCNC(=N)N)NC(=O)CCCCCCCNCc1nc2c(sc3ccc(Br)cc32)c(=O)[nH]1)C(=O)N[C@H](CCCCN)C(N)=O [Compound 2, BBTP-Aoc-(D-Arg)2-Gly-D-Arg-D-Lys-NH2]

>  <remaining activity at 1 µM>
72%

$$$$
>  <compound>
N=C(N)NCCC[C@@H](NC(=O)CCCCCNCc1nc2c(sc3cc(Br)cnc32)c(=O)[nH]1)C(=O)N[C@H](CCCNC(=N)N)C(=O)N[C@H](CCCNC(=N)N)C(=O)N[C@H](CCCNC(=N)N)C(=O)N[C@H](CCCNC(=N)N)C(=O)N[C@H](CCCNC(=N)N)C(=O)N[C@H](CCCCN)C(N)=O [ARC-3126, BPTP-Ahx-(D-Arg)6-D-Lys-NH2] (X3-[dR][dR][dR][dR][dR][dR][dK]-NH2)

>  <remaining activity at 1 µM>
99%

$$$$

Batch of 2 compounds: report remaining activity at 1 µM for each.
1. N=C(N)NCCC[C@@H](NC(=O)CCCCCNC(=O)Cn1cnc2c(I)c(I)c(I)c(I)c21)C(=O)N[C@H](CCCNC(=N)N)C(=O)N[C@H](CCCNC(=N)N)C(=O)N[C@H](CCCNC(=N)N)C(=O)N[C@H](CCCNC(=N)N)C(=O)N[C@H](CCCNC(=N)N)C(=O)N[C@H](CCCCN)C(N)=O [ARC-3125, TIBI-CH2-C(=O)-Ahx-(D-Arg)6-D-Lys-NH2]
2. N=C(N)NCCC[C@@H](NC(=O)CNC(=O)[C@@H](CCCNC(=N)N)NC(=O)[C@@H](CCCNC(=N)N)NC(=O)Cn1cc(CNCc2nc3c(sc4ccc(Br)cc43)c(=O)[nH]2)nn1)C(=O)N[C@H](CCCCN)C(N)=O [Compound 3, BBTP-Amt-(D-Arg)2-Gly-D-Arg-D-Lys-NH2]

["37%", "71%"]

Cited source: paper PMC8307404
